- Test system: Sporothrix schenkii
- assay-overview: Antifungal activity in vitro, resazurin growth inhibition: Sporothrix schenkii (B62482)
- Format: cell-based
A collection of compounds and their measured Inf. A: Sporothrix schenkii B62482, pIC50

Consider the worked cases shown below.
Problem: For Cl.Fc1ccc2oc(C3NCc4c(Cl)cc(Cl)cc4-n4cccc43)cc2c1 (racemic) , what is its reported Inf. A: Sporothrix schenkii B62482, pIC50?
Solution: <4.80

Problem: For Cc1ccc2cc(C3NCc4c(C)cccc4-n4cccc43)oc2c1.Cl (racemic) , what is its reported Inf. A: Sporothrix schenkii B62482, pIC50?
Solution: <4.19

Problem: For CC(F)(F)c1ccc(C2=NCc3c(F)cc(F)cc3-n3cccc32)cn1 , what is its reported Inf. A: Sporothrix schenkii B62482, pIC50?
Solution: 4.94

Problem: For Cl.FC(F)(F)c1ccc(C2NCc3ccccc3-n3cccc32)cn1 (racemic) , what is its reported Inf. A: Sporothrix schenkii B62482, pIC50?
Solution: <4.19

Further cases:
Problem: For CC(F)(F)c1ccc(C2=NCc3c(F)cccc3-n3cccc32)cn1 , what is its reported Inf. A: Sporothrix schenkii B62482, pIC50?
Solution: <4.19

Problem: For COc1cccc2cc(C3=NCc4ccccc4-n4cccc43)oc12 , what is its reported Inf. A: Sporothrix schenkii B62482, pIC50?
Solution: <4.49

Problem: For Clc1cccc2c1CNC(c1ccccn1)c1cccn1-2 (racemic) , what is its reported Inf. A: Sporothrix schenkii B62482, pIC50?
Solution: 4.49

Problem: For Cc1cccc2c1CN=C(c1ccc(C(F)(F)F)nc1)c1cccn1-2 , what is its reported Inf. A: Sporothrix schenkii B62482, pIC50?
Solution: 4.85

Problem: For CCc1ccc(C2=NCc3c(Cl)cc(Cl)cc3-n3cccc32)nc1 , what is its reported Inf. A: Sporothrix schenkii B62482, pIC50?
Solution: <4.49

Problem: For Clc1cccc2c1CN=C(c1cccnc1)c1cccn1-2 , what is its reported Inf. A: Sporothrix schenkii B62482, pIC50?
Solution: <4

Problem: For Clc1cccc2c1-n1cccc1C(c1ccc3sccc3c1)=NC2 , what is its reported Inf. A: Sporothrix schenkii B62482, pIC50?
Solution: 6.06
